Tested on: human MDR1 P-gp
Assay: Efflux in MDCK cells transfected with the human MDR1 gene (MDCK-PGP permeability)
Format: in vitro ADME, canine
Details: dog, apical-to-basal apparent permeability (PEAB), pH 7.4, 37° C.
readout.name: Papp A→B (×10⁻⁶ cm/s)
Numbers only here, please. The scale is ×10⁻⁶ cm/s.

The examples below pair each entry with its known result.
Cc1nnn(-c2ccc(C(F)F)cc2)c1COc1ccc(-n2cnc(Cl)c2)nn1
28.5
Cc1nnn(-c2ccc(C(F)F)cc2)c1COc1ccc(-c2cnccn2)nn1
69
CC(=O)c1cn(-c2ccc(OCc3c(C)nnn3-c3ccc(C(F)F)cc3)nn2)cn1
17.6

**Q:** If you can, please state the reported Papp A→B value of Cc1nnn(-c2ccc(C(F)F)cc2)c1COc1ccc(-n2cncn2)nn1 .
**A:** 68.7

**Q:** If you can, please state the reported Papp A→B value of COc1ncc(-c2ccc(OCc3c(C)nnn3-c3ccc(C(F)F)cc3)nn2)cn1 .
**A:** 59.7

**Q:** If you can, please state the reported Papp A→B value of Cc1nnn(-c2ccc(C(F)F)cc2)c1COc1ccc(-n2cnc(C[N+](C)(C)C)c2)nn1.O=C([O-])C(F)(F)F .
**A:** 0.6

**Q:** If you can, please state the reported Papp A→B value of Cc1nnn(-c2ccc(C(F)F)cc2)c1COc1ccc(-c2cnn(C3CC3)c2)nn1 .
**A:** 42.4

* * *

Listing of entries alongside the reported Ki.
Target: human GABAA α5β3γ2s receptor (Homo sapiens, UniProt P18507+P31644)
Sequence (P18507 1-475): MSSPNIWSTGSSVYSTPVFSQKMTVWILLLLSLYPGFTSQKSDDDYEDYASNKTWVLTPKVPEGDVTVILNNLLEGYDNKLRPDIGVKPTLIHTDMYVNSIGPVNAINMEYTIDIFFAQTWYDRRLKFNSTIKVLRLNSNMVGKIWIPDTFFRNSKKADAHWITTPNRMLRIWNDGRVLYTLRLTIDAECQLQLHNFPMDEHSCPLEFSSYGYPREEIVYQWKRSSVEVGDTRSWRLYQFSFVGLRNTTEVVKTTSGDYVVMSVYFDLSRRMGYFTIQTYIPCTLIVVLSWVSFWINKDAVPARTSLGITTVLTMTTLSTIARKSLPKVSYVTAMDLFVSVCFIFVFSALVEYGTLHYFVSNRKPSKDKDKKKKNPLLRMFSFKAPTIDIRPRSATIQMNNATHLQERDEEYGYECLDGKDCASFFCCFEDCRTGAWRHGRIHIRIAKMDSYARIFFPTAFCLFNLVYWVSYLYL
Sequence (P31644 1-462): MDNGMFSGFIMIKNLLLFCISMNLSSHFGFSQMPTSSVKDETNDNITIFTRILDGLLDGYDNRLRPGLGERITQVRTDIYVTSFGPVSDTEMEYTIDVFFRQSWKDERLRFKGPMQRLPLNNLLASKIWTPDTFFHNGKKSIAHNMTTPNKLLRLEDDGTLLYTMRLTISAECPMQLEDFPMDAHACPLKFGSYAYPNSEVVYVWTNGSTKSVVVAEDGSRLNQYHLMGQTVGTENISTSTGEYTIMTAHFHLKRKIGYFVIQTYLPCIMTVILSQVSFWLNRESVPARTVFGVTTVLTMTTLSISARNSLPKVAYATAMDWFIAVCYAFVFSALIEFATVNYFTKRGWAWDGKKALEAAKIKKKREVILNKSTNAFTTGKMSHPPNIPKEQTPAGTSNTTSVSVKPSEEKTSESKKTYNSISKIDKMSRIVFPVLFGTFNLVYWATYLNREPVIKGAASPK
Test: Assay A: in vitro inhibition of 3H-flumazenil binding, HEK cells expressing human GABAA α5β3γ2s receptor
Settings: 3H-flumazenil 1 nM, HEK-293 membranes, 40 min at 2° C.; Ki from IC50 by Cheng and Prusoff
Numbers only here, please. The scale is nM.

The examples below pair each entry with its known result.
Cc1nnn(-c2ccc(C(F)F)cc2)c1COc1ccc(-n2cnc(Cl)c2)nn1
0.056
CNC(=O)c1cn(-c2ccc(OCc3c(C)nnn3-c3ccc(C(F)F)cc3)nn2)cn1
0.071
Cc1nnn(-c2ccc(C(F)F)cc2)c1COc1ccc(-c2cnc(OCC(C)(C)O)nc2)nn1
0.87
Cc1nnn(-c2ccc(C(F)F)cc2)c1COc1ccc(-n2cnc(CN)c2)nn1
0.057
Cc1nnn(-c2ccc(C(F)F)cc2)c1COc1ccc(-n2cnc(CO)c2)nn1
0.2

**Q:** If you can, please state the reported Ki value of Cc1nnn(-c2ccc(C(F)F)cc2)c1COc1ccc(-c2cnn(C)c2)nn1 .
**A:** 0.11

**Q:** If you can, please state the reported Ki value of Cc1nnn(-c2ccc(C(F)F)cc2)c1COc1ccc(-n2ccc(C#N)n2)nn1 .
**A:** 0.009

**Q:** If you can, please state the reported Ki value of Cc1nnn(-c2ccc(C(F)F)cc2)c1COc1ccc(-n2nc(C#N)cc2C)nn1 .
**A:** 0.035

**Q:** If you can, please state the reported Ki value of Cc1nnn(-c2ccc(C(F)F)cc2)c1COc1ccc(-n2cnc(C(F)F)c2)nn1 .
**A:** 0.11

**Q:** If you can, please state the reported Ki value of Cc1ncc(-c2ccc(OCc3c(C)nnn3-c3ccc(C(F)F)cc3)nn2)o1 .
**A:** 0.11

**Q:** If you can, please state the reported Ki value of CC(=O)c1cn(-c2ccc(OCc3c(C)nnn3-c3ccc(C(F)F)cc3)nn2)cn1 .
**A:** 0.039

**Q:** If you can, please state the reported Ki value of Cc1nnn(-c2ccc(C(F)F)cc2)c1COc1ccc(-n2cnc(C[N+](C)(C)C)c2)nn1.O=C([O-])C(F)(F)F [Example 36, trifluoroacetate] .
**A:** 0.12

* * *

Listing of entries alongside the reported Assay B: GABAA α5β3γ2 Emax vs GABA.
Target: α5β2γ2 GABAA receptor (Homo sapiens, UniProt P18507+P31644)
Experiment: Assay B: modulation of α5β2γ2 GABAA receptor, two-electrode voltage clamp in oocytes
Format: cell-based
Numbers only here, please. The scale is %.

COC(=O)c1cn(-c2ccc(OCc3c(C)nnn3-c3ccc(C(F)F)cc3)nn2)cn1 [Example 29]
-29

Please examine the following record next.
**Q:** If you can, please state the reported Assay B: GABAA α5β3γ2 Emax vs GABA value of Cc1cc(-c2ccc(OCc3c(C)nnn3-c3ccc(C(F)F)cc3)nn2)cnn1 [Example 11] .
**A:** -17.6

* * *

Listing of entries alongside the reported Assay B: GABAA α5β3γ2 Emax vs GABA.
Target: α5β2γ2 GABAA receptor (Homo sapiens, UniProt P18507+P31644)
Test: Assay B: modulation of α5β2γ2 GABAA receptor, two-electrode voltage clamp in oocytes
Assay type: cell-based
Numbers only here, please. The scale is %.

Cc1nnn(-c2ccc(C(F)F)cc2)c1COc1ccc(-c2cncc(-n3ccnc3)c2)nn1 [Example 8]
-19.5
Cc1nnn(-c2ccc(C(F)F)cc2)c1COc1ccc(-n2cnc(C(=O)N(C)C)c2)nn1 [Example 16]
0
Cc1nnn(-c2ccc(C(F)F)cc2)c1COc1ccc(-c2ccn[nH]2)nn1 [Example 10]
-18

**Q:** If you can, please state the reported Assay B: GABAA α5β3γ2 Emax vs GABA value of COc1ncc(-c2ccc(OCc3c(C)nnn3-c3ccc(C(F)F)cc3)nn2)cn1 [Example 3] .
**A:** -44.3

* * *

Target: α5β2γ2 GABAA receptor (Homo sapiens, UniProt P18507+P31644)
Sequence (P31644 32-462): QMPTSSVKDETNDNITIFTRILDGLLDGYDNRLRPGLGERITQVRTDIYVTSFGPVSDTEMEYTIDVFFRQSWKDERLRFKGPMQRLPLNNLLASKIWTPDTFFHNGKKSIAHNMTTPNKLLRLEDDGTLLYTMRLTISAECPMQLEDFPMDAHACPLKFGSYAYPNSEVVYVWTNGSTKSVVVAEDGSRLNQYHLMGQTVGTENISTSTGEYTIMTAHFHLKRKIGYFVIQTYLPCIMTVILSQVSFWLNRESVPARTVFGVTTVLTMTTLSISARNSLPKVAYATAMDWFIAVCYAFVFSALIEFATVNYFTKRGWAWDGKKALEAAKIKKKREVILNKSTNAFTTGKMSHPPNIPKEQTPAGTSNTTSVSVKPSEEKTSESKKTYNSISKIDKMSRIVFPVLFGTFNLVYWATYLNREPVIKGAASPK
Sequence (P18507 40-376 limits assumed): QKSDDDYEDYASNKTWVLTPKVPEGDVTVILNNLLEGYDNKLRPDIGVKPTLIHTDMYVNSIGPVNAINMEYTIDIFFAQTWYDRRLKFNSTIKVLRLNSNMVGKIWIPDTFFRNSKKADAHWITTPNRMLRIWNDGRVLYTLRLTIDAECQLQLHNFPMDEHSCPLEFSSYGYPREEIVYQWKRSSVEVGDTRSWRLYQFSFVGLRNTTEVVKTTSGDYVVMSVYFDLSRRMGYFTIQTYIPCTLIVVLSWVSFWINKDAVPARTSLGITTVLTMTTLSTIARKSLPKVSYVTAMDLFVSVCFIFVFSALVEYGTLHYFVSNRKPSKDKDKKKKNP
Assay: Assay B: modulation of α5β2γ2 GABAA receptor, two-electrode voltage clamp in oocytes
Assay type: cell-based
Class boundaries, taken from values of Assay B: GABAA α5β3γ2 Emax vs GABA, are as follows: group A = under -30%, group B = from -30% up to -20%, group C = -20% and over

Here's what some known entries look like.
Cc1nnn(-c2ccc(C(F)F)cc2)c1COc1ccc(-n2cnc(CO)c2)nn1
group B
Cc1nnn(-c2ccc(C(F)F)cc2)c1COc1ccc(-c2cnn(C3CC3)c2)nn1
group C
Cc1nnn(-c2ccc(C(F)F)cc2)c1COc1ccc(-c2cnc(OCC(C)(C)O)nc2)nn1
group A
Cc1nnn(-c2ccc(C(F)F)cc2)c1COc1ccc(-n2cnc(S(C)(=O)=O)c2)nn1
group B

**Q:** Which band does Cc1nnn(-c2ccc(C(F)F)cc2)c1COc1ccc(-n2ccc(C(F)(F)F)n2)nn1 fall in?
**A:** group C

**Q:** Which band does Cc1nnn(-c2ccc(C(F)F)cc2)c1COc1ccc(-n2ccc(C(N)=O)n2)nn1 fall in?
**A:** group C

**Q:** Which band does Cc1n[nH]c(C)c1-c1ccc(OCc2c(C)nnn2-c2ccc(C(F)F)cc2)nn1 fall in?
**A:** group B

**Q:** Which band does Cc1nnn(-c2ccc(C(F)F)cc2)c1COc1ccc(-n2cnc(C=O)c2)nn1 fall in?
**A:** group B

**Q:** Which band does Cc1nnn(-c2ccc(C(F)F)cc2)c1COc1ccc(-n2nc(C#N)cc2C)nn1 fall in?
**A:** group C

**Q:** Which band does Cc1nnn(-c2ccc(C(F)F)cc2)c1COc1ccc(-c2cnn(C)c2)nn1 fall in?
**A:** group A

**Q:** Which band does Cc1nnn(-c2ccc(C(F)F)cc2)c1COc1ccc(-c2cnccn2)nn1 fall in?
**A:** group B

**Q:** Which band does Cc1nnn(-c2ccc(C(F)F)cc2)c1COc1ccc(-n2cnc(Cl)c2)nn1 fall in?
**A:** group B

**Q:** Which band does Cc1nnn(-c2ccc(C(F)F)cc2)c1COc1ccc(-c2cncnc2)nn1 fall in?
**A:** group C

**Q:** Which band does Cc1ncc(-c2ccc(OCc3c(C)nnn3-c3ccc(C(F)F)cc3)nn2)o1 fall in?
**A:** group A

**Q:** Which band does Cc1nnn(-c2ccc(C(F)F)cc2)c1COc1ccc(-n2cc(C#N)cn2)nn1 fall in?
**A:** group B

**Q:** Which band does Cc1ncn(-c2ccc(OCc3c(C)nnn3-c3ccc(C(F)F)cc3)nn2)n1 fall in?
**A:** group B

**Q:** Which band does Cc1nnn(-c2ccc(C(F)F)cc2)c1COc1ccc(-n2cnc(C(C)(C)O)c2)nn1 fall in?
**A:** group C

**Q:** Which band does Cc1nnn(-c2ccc(C(F)F)cc2)c1COc1ccc(-n2cc3c(n2)CCNC3=O)nn1 fall in?
**A:** group B

**Q:** Which band does Cc1nnn(-c2ccc(C(F)F)cc2)c1COc1ccc(-n2cnc(CN)c2)nn1 fall in?
**A:** group B

**Q:** Which band does Cc1nnn(-c2ccc(C(F)F)cc2)c1COc1ccc(-n2cnc(C[N+](C)(C)C)c2)nn1.O=C([O-])C(F)(F)F fall in?
**A:** group A

**Q:** Which band does Cc1nnn(-c2ccc(C(F)F)cc2)c1COc1ccc(-n2cnc(C(C)O)c2)nn1 (stereo not drawn) fall in?
**A:** group C

**Q:** Which band does CNC(=O)c1cn(-c2ccc(OCc3c(C)nnn3-c3ccc(C(F)F)cc3)nn2)cn1 fall in?
**A:** group A

**Q:** Which band does Cc1nnn(-c2ccc(C(F)F)cc2)c1COc1ccc(-c2ccnc(O)c2)nn1 fall in?
**A:** group A

**Q:** Which band does Cc1nnn(-c2ccc(C(F)F)cc2)c1COc1ccc(-n2cnc(C(N)=O)c2)nn1 fall in?
**A:** group A

**Q:** Which band does CCn1cc(-c2ccc(OCc3c(C)nnn3-c3ccc(C(F)F)cc3)nn2)cn1 fall in?
**A:** group A

**Q:** Which band does Cc1nnn(-c2ccc(C(F)F)cc2)c1COc1ccc(-n2cncn2)nn1 fall in?
**A:** group B

**Q:** Which band does Cc1nnn(-c2ccc(C(F)F)cc2)c1COc1ccc(-n2cnc(C#N)c2)nn1 fall in?
**A:** group B
